system: spontaneously hypertensive rats; assay: Blood pressure depressing action in spontaneously hypertensive rats; assay type: in vivo; settings: male spontaneously hypertensive rats, oral, 3.0 mg/kg, 4 hr after administration, N=6
measured.quantity: systric pressure of median sacral artery, change at 4 hr (%)

compound	experimental.result
COC(=O)C1=C(C)NC(C)=C(C(=O)OCCN(C)Cc2ccccc2)C1c1cccc([N+](=O)[O-])c1 (stereo not shown) [Nicardipine, reference compound]	-3.0
COC(=O)C1=C(C)NC(C)=C(C(=O)OC)C1c1ccccc1[N+](=O)[O-] [Nifedipine, reference compound]	-4.3
CC1=C(C(=O)OCCN2Cc3ccc(Cl)cc3C2)C(c2cccc([N+](=O)[O-])c2)C(C(=O)OCC2CC2)=C(C)N1 (stereo not shown) [Example 2]	-13.2
CC1=C(C(=O)OCCN(C)Cc2ccc(Cl)cc2Cl)C(c2cccc([N+](=O)[O-])c2)C(C(=O)OCC2CC2)=C(C)N1 (stereo not shown) [Example 1]	-34.0

Cited source: patent EP0280239A1
